Ref: patent US20140005163A1

Each record here notes measured pIC50.
Test system: PKB Ser473 phosphorylation in Rat1-myr-HA-p110 alpha cells
Assay: Reverse protein array assay, PKB Ser473 phosphorylation in Rat1-myr-p110 alpha cells
Type: cell-based
Details: 0.5 h, pAkt Ser473, 30 minutes compound incubation, read-out: p-PKB IC50
Protocol: The Rat1-myr-HA-p110 alpha, beta and delta cells were trypsinized and counted with a CASY TT cell counter (Schärfe System GmbH, Reutlingen Germany). […] The plates were incubated at 37° C. and 5% CO2 under humidified condition for at least 20 h. […] After incubation, the arrays were washed twice with 200 μl CAB1 buffer. […] The fluorescence signal was assessed with exposure times of 1, 3, 5 and 10 seconds, depending on the intensity of the signal. […]
# pIC50 = -log10(concentration in molar units)

CO[C@@H]1CCN(c2ccc(-c3ccc4ncc5c(c4c3)n(-c3cn(C)nc3C)c(=O)n5C)cn2)C1 ... 6.90

The molecule identified as COCCn1nc(C)c(-n2c(=O)n(C)c3cnc4ccc(-c5ccc(-n6cccn6)cc5)cc4c32)c1C registered its pIC50 at 7.77

The molecule identified as CC(=O)Nc1cc(-c2ccc3ncc4c(c3c2)n(-c2cn(C)nc2C)c(=O)n4C)cnc1Cl registered its pIC50 at 7.26

The molecule identified as COc1cc(-c2ccc3ncc4c(c3c2)n(-c2cn(CCO)nc2C)c(=O)n4C)cnc1C registered its pIC50 at 7.96

The molecule identified as CCn1cc(-n2c(=O)n(C)c3cnc4ccc(-c5ccc(OC)c(OC)c5)cc4c32)c(C)n1 registered its pIC50 at 8.00

The molecule identified as CCOc1ncc(-c2ccc3ncc4c(c3c2)n(-c2cn(C)nc2C)c(=O)n4C)cc1NC(C)=O registered its pIC50 at 7.33

The molecule identified as Cc1nn(C)c(C)c1-n1c(=O)n(C)c2cnc3ccc(-c4cnc(N)c(F)c4)cc3c21 registered its pIC50 at 6.80

The molecule identified as Cc1nn(C)c(C)c1-n1c(=O)n(C)c2cnc3ccc(-c4cccc(O)c4)cc3c21 registered its pIC50 at 6.66

The molecule identified as COc1cncc(-c2ccc3ncc4c(c3c2)n(-c2cn(C)nc2C)c(=O)n4C)c1 registered its pIC50 at 7.43

The molecule identified as Cc1nn(C(C)C)cc1-n1c(=O)n(C)c2cnc3ccc(-c4cncc(C(C)(C)O)c4)cc3c21 registered its pIC50 at 7.80

The molecule identified as CCOc1cncc(-c2ccc3ncc4c(c3c2)n(-c2c(C)cnn2C)c(=O)n4C)c1 registered its pIC50 at 6.07

The molecule identified as CNC(=O)c1cc(-c2ccc3ncc4c(c3c2)n(-c2cn(C)nc2C)c(=O)n4C)cnc1N registered its pIC50 at 7.72

The molecule identified as CCN(CC)C(=O)Cn1cc(-n2c(=O)n(C)c3cnc4ccc(-c5ccc(C)nc5)cc4c32)c(C)n1 registered its pIC50 at 7.28

The molecule identified as COc1ccc(-c2ccc3ncc4c(c3c2)n(-c2c(C)cnn2C)c(=O)n4C)cn1 registered its pIC50 at 6.26

The molecule identified as COc1ncc(-c2ccc3ncc4c(c3c2)n(-c2cn(C)nc2C)c(=O)n4C)cc1C#N registered its pIC50 at 7.29

----------
Each record here notes measured log10 IC50.
tested on: PKB Ser473 phosphorylation in Rat1-myr-HA-p110 alpha cells; experiment: Reverse protein array assay, PKB Ser473 phosphorylation in Rat1-myr-p110 alpha cells; format: cell-based; settings: 0.5 h, pAkt Ser473, 30 minutes compound incubation, read-out: p-PKB IC50
Log10 applied to IC50; unit prior to transform: µM.

Consider the following illustrative entries.
Cc1nn(C)cc1-n1c(=O)n(C)c2cnc3ccc(-c4cnc5c(c4)ncn5C)cc3c21 ... -1.70
CCNc1cc(-c2ccc3ncc4c(c3c2)n(-c2c(C)nn(CCOC)c2C)c(=O)n4C)cnc1OC ... -1.77
Cn1cc(-n2c(=O)n(C)c3cnc4ccc(-c5ccc(CO)nc5)cc4c32)c(Cl)n1 ... -2.10
CN(C)c1ccc(-c2ccc3ncc4c(c3c2)n(-c2ccnn2C)c(=O)n4C)cn1 ... -0.87
CNC(=O)c1ccc(-c2ccc3ncc4c(c3c2)n(-c2cn(C)nc2C)c(=O)n4C)cn1 ... -1.60

Kindly review the next molecule as well.
The molecule identified as COCCOc1cc(-c2ccc3ncc4c(c3c2)n(-c2cn(C)nc2C)c(=O)n4C)cnc1CO registered its log10 IC50 at -0.94

----------
Each record here notes measured log10 solubility.
experiment: Solubility at pH 6.8; type: physicochemical; details: pH 6.8, aqueous buffer, thermodynamic from solid; read-out: solubility
Log10 applied to solubility; unit prior to transform: µg/mL.

Consider the following illustrative entries.
Cc1nn(C)cc1-n1c(=O)n(C)c2cnc3ccc(-c4cnc5c(c4)nc(N(C)C)n5C)cc3c21 ... 1.67
Cc1cc(-n2c(=O)n(C)c3cnc4ccc(-c5ccc(N(C)C)nc5)cc4c32)n(C)n1 ... 0.78
CC(=O)NCc1cncc(-c2ccc3ncc4c(c3c2)n(-c2cn(C)nc2C)c(=O)n4C)c1 ... 2.62
Cc1ncc(-c2ccc3ncc4c(c3c2)n(-c2cn(C)nc2C)c(=O)n4C)cc1OC(C)C ... 2.34
CNC(=O)c1ccc(-c2ccc3ncc4c(c3c2)n(-c2c(C)nn(C)c2C)c(=O)n4C)cn1 ... 1.85
COc1ccc(-c2ccc3ncc4c(c3c2)n(-c2c(C)cnn2C)c(=O)n4C)cn1 ... 0.90
Cc1nn(C)cc1-n1c(=O)n(C)c2cnc3ccc(-c4cncc(CNS(C)(=O)=O)c4)cc3c21 ... 1.92
Cc1nn(C(C)C)cc1-n1c(=O)n(C)c2cnc3ccc(-c4cnc(F)c(N)c4)cc3c21 ... 1.11

The compound identified as Cc1nn(C)cc1-n1c(=O)n(C)c2cnc3ccc(-c4cncc(N(C)C(C)C)c4)cc3c21 registered its log10 solubility at 0.90

The compound identified as CCn1cc(-n2c(=O)n(C)c3cnc4ccc(-c5cnc(OC)nc5)cc4c32)c(C)n1 registered its log10 solubility at 1.91

The compound identified as Cc1ccc(-c2ccc3ncc4c(c3c2)n(-c2cn(C)nc2C)c(=O)n4C)cn1 registered its log10 solubility at 0.95

The compound identified as COCCOc1ccc(-c2ccc3ncc4c(c3c2)n(-c2cn(C)nc2C)c(=O)n4C)cc1OC registered its log10 solubility at 0.60

The compound identified as CNc1cc(-c2ccc3ncc4c(c3c2)n(-c2cn(C)nc2Cl)c(=O)n4C)cnc1CO registered its log10 solubility at 0.48

----------
experiment: Solubility in the organic solvents PEG400, propyleneglycol and ethanol; assay type: physicochemical; conditions: organic solvent or mixture; excipient PEG400
value.type: solubility

Consider the following illustrative entries.
Cc1ncc(-c2ccc3ncc4c(c3c2)n(-c2cn(C)nc2C)c(=O)n4C)cc1OC(C)C ... > 19 mg/mL
COCc1ncc(-c2ccc3ncc4c(c3c2)n(-c2cn(C)nc2C)c(=O)n4C)cc1OC(C)C ... > 23 mg/mL
Cc1nn(C(C)C)cc1-n1c(=O)n(C)c2cnc3ccc(-c4ccc(N(C)C)nc4)cc3c21 ... > 20 mg/mL

Kindly review the next compound as well.
The compound identified as Cc1nn(C)cc1-n1c(=O)n(C)c2cnc3ccc(-c4cncc(OC(C)C)c4)cc3c21 registered its solubility at > 26 mg/mL

----------
biological target: PI3K delta (Homo sapiens, UniProt O00329); construct: for the full-length p110-d subunit are generated and fused by overlapping PCR; p85(iSH2) fusion partner (see partner chain) (N); His tag (C); Tn5 (Trichoplusia ni) or TiniPro insect cells; test: PI3K delta kinase assay (Kinase-Glo luminescence)
Sequence (O00329 with tags, fused parts or gaps limits assumed): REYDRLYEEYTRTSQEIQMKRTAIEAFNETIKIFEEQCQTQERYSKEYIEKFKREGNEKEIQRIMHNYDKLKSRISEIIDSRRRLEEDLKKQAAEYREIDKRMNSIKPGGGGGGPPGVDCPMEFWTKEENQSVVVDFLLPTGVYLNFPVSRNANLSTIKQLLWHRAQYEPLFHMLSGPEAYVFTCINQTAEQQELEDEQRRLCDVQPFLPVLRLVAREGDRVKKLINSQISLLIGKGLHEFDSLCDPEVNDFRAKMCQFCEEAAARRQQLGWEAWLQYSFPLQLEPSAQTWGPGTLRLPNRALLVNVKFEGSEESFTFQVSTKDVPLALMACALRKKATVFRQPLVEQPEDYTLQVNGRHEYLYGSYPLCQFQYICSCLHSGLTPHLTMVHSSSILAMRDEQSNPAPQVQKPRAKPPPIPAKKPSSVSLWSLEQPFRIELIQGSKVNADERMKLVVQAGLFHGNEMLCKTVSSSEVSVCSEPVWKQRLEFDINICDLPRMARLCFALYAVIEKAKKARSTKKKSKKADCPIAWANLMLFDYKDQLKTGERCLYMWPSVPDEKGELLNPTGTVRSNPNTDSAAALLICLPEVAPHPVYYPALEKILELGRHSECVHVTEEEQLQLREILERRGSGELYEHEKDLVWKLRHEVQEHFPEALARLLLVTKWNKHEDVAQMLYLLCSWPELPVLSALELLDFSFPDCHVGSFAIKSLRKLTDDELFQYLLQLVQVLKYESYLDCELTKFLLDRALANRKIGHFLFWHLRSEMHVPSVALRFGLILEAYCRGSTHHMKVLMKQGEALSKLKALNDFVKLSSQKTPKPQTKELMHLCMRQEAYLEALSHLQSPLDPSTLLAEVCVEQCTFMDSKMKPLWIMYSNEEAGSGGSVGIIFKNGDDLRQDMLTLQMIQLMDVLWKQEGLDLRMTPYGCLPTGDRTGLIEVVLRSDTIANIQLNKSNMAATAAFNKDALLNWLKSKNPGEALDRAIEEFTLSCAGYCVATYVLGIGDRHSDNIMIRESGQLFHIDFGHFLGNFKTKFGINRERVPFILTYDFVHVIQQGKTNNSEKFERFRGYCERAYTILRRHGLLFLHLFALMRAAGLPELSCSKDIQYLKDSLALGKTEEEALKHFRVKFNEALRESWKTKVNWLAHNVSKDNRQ
Each record here notes measured pIC50.
# pIC50 = -log10(concentration in molar units)

Consider the following illustrative entries.
Cc1nn(C)cc1-n1c(=O)n(C)c2cnc3ccc(-c4cnc(CO)c(OC(C)C)c4)cc3c21 [Example 190] ... 7.96
CCOc1ccc(-c2ccc3ncc4c(c3c2)n(-c2cnn(C)c2C)c(=O)n4C)cn1 [Example 3.6] ... 6.80
Cc1cc(-n2c(=O)n(C)c3cnc4ccc(-c5ccc(C(F)(F)F)nc5)cc4c32)n(C)n1 [Example 8.2] ... 6.92

The compound identified as Cc1nn(C)cc1-n1c(=O)n(C)c2cnc3ccc(-c4cnc(Cl)c(NS(C)(=O)=O)c4)cc3c21 [Example 223] registered its pIC50 at 8.22

The compound identified as Cc1nn(C)cc1-n1c(=O)n(C)c2cnc3ccc(-c4cncnc4)cc3c21 [Example 26] registered its pIC50 at 6.47

The compound identified as CNC(=O)c1ccc(-c2ccc3ncc4c(c3c2)n(-c2cn(C)nc2C)c(=O)n4C)cn1 [Example 15.1] registered its pIC50 at 6.59

The compound identified as Cc1nn(C(C)C)cc1-n1c(=O)n(C)c2cnc3ccc(-c4ccc(C(N)=O)nc4)cc3c21 [Example 112] registered its pIC50 at 6.68

The compound identified as Cc1nn(C)c(C)c1-n1c(=O)n(C)c2cnc3ccc(-c4ccccc4)cc3c21 [Example 37.2] registered its pIC50 at 6.33
